Source of measurements: patent US20240409557A1

# test.target: 15-PGDH in A549 cells (Homo sapiens, UniProt P15428)
# Construct: endogenous in cells
# Sequence (P15428 1-266): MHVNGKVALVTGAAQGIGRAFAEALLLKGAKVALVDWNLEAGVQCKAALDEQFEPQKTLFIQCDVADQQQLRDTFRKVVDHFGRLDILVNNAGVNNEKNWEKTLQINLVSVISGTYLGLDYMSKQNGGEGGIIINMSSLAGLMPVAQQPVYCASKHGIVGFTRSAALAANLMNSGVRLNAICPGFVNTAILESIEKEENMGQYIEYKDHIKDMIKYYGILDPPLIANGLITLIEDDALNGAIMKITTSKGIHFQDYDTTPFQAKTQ
# experiment.notes: A549 cellular 15-PGDH assay (PGE2 accumulation, HTRF)
# particulars: interleukin-stimulated, inhibitor 24 hrs, PGE2 by competitive HTRF, read-out: A549 Cell Assay IC50
Consider the following compounds; for each one, report its log10(IC50).
Quick note: numbers are log10 of IC50, with nM as the unit.

Summary for this compound, Cn1cc2cc(-c3ccc4cc([C@H](O)C5CCOCC5)sc4n3)cnc2n1 (single isomer, unassigned) [Compound B15R] : log10(IC50) is -0.25

Summary for this compound, OC1(c2cc3ccc(-c4cnc5[nH]ncc5c4)nc3s2)CC(F)(F)C1 : log10(IC50) is -0.46

Summary for this compound, Cn1cc2cc(-c3ccc4cc(C5(O)CC6(CCCCC6)C5)sc4n3)cnc2n1 : log10(IC50) is -1.03

Summary for this compound, Cn1cc2cc(-c3ccc4cc([C@H](O)[C@H]5C[C@@H](C(F)(F)F)C5)sc4n3)cnc2n1 (single isomer, unassigned) [Compound B84RC] : log10(IC50) is -0.31

Summary for this compound, CC(O)c1cc2ccc(-c3cnc4nn(C)cc4c3)nc2s1 (centres unmarked) : log10(IC50) is 1.21

Summary for this compound, CO[C@H]1C[C@](O)(c2cc3ccc(-c4cnc5nn(C)cc5c4)nc3s2)C1 [Compound C31C] : log10(IC50) is -0.80

Summary for this compound, Cc1c([C@@H](O)C2CCOCC2)sc2nc(-c3cnc4nn(C)cc4c3)ccc12 (single isomer, unassigned) [Compound B90S] : log10(IC50) is 2.37

Summary for this compound, OC1(c2cc3ccc(-c4ccc5[nH]ncc5c4)nc3s2)CC(F)(F)C1 : log10(IC50) is 0.83

* * *

# test.target: 15-PGDH in A549 cells (Homo sapiens, UniProt P15428)
# Construct: endogenous in cells; host or cells: A549
# Sequence (P15428 1-266): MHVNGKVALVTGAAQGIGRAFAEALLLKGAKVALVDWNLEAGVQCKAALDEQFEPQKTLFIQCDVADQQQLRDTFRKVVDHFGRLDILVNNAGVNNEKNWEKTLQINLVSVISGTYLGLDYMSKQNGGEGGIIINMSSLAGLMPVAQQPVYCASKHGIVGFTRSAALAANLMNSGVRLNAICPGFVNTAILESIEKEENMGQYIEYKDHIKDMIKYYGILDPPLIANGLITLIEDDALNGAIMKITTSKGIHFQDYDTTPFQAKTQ
# experiment.notes: A549 cellular 15-PGDH assay (PGE2 accumulation, HTRF)
# Assay type: cell-based
# particulars: interleukin-stimulated, inhibitor 24 hrs, PGE2 by competitive HTRF, read-out: A549 Cell Assay IC50
test.readout: pIC50
As a rule, pIC50 stands for the negative log10 of the concentration, concentration in M.

Summary for this compound, Cn1nnc2cc(-c3ncc4cc([C@]5(O)C[C@@H](OC(F)(F)F)C5)sc4n3)cnc21 [Compound C111C] : pIC50 is 8.40

Summary for this compound, Cn1cc2cc(-c3ccc4cc([C@@H](O)[C@H]5C[C@@H](C(F)(F)F)C5)sc4n3)cnc2n1 (single isomer, unassigned) [Compound B84SC] : pIC50 is 8.84

Summary for this compound, Cn1cc2cc(-c3ccc4cc(C5(O)CCC(F)(F)CC5)sc4n3)cnc2n1 [Compound C15] : pIC50 is 7.89

Summary for this compound, CCC[C@@H](O)c1cc2ccc(-c3cnc4nn(C)cc4c3)cc2s1 (single isomer, unassigned) [Compound B54R] : pIC50 is 7.93

Summary for this compound, Cn1cc2cc(-c3ccc4nc([C@]5(O)C[C@](C)(C#N)C5)sc4n3)cnc2n1 (single isomer, unassigned) [Compound C91T] : pIC50 is 8.23

Summary for this compound, Cn1ccc2cc(-c3ccc4cc([C@H](O)C5CC(F)(F)C5)sc4n3)ccc2c1=O (single isomer, unassigned) [Compound B50R] : pIC50 is 9.28

Summary for this compound, Cn1cc2cc(-c3ccc4cc([C@H](O)C5CC(F)(F)C5)sc4n3)cnc2n1 (single isomer, unassigned) [Compound B30R] : pIC50 is 9.63

Summary for this compound, Cc1nc2cc(-c3ccc4cc([C@]5(O)C[C@@H](C(F)F)C5)sc4n3)cnc2[nH]1 [Compound C93C] : pIC50 is 8.71

Summary for this compound, Cn1cc2cc(-c3ccc4cc([C@H](O)C5CCCC5)sc4c3)cnc2n1 (single isomer, unassigned) [Compound B58R] : pIC50 is 8.85

Summary for this compound, Cn1cnc(-c2ccc3cc(C(O)C4CC(F)(F)C4)sc3n2)cc1=O (centres unmarked) [Compound B49] : pIC50 is 9.13

Summary for this compound, CO[C@]1(C)C[C@](O)(c2cc3ccc(-c4cnc5nn(C)cc5c4)nc3s2)C1 (single isomer, unassigned) [Compound C59T] : pIC50 is 9.80

Summary for this compound, Cn1cc2cc(-c3ccc4sc([C@]5(O)C[C@@H](C(F)(F)F)C5)cc4n3)cnc2n1 [Compound C86C] : pIC50 is 8.39

Summary for this compound, Cn1cc2cc(-c3ccc4nc(C5(O)CC6(CC6)C5)sc4n3)cnc2n1 [Compound C108] : pIC50 is 8.90

Summary for this compound, Cn1cc2cc(-c3ccc4cc([C@@H](O)[C@@H]5CCOC5)sc4n3)cnc2n1 (single isomer, unassigned) [Compound B19SR] : pIC50 is 8.45

* * *

# test.target: 15-PGDH in A549 cells (Homo sapiens)
# Construct: endogenous in cells
# Sequence (P15428 1-266): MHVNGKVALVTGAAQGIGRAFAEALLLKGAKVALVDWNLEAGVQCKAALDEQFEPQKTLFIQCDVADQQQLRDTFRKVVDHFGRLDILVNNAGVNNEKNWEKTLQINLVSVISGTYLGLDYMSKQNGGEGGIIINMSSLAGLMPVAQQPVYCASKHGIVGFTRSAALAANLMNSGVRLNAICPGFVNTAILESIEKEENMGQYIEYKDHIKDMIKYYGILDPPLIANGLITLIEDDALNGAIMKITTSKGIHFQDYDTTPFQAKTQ
# experiment.notes: A549 cellular 15-PGDH assay (PGE2 accumulation, HTRF)
# particulars: interleukin-stimulated, inhibitor 24 hrs, PGE2 by competitive HTRF, read-out: A549 Cell Assay IC50
Could you mark each record 1.0 if its IC50 falls strictly under 0.7 nM, and 0.0 if it equals or exceeds it?

IN: Determine whether this compound shows IC50 lower than 0.7 nM (ties excluded): Cn1nnc2cc(-c3ccc4cc([C@H](O)C5CC(F)(F)C5)sc4n3)cnc21 [Compound B82R]
OUT: 1.0

IN: Determine whether this compound shows IC50 lower than 0.7 nM (ties excluded): Cc1c(C2(O)CC(F)(F)C2)sc2nc(-c3cnc4nn(C)cc4c3)ccc12
OUT: 0.0

IN: Determine whether this compound shows IC50 lower than 0.7 nM (ties excluded): Cn1nnc2cc(-c3ccc4cc(C5(O)CC(F)(F)C5)sc4n3)cnc21
OUT: 0.0

IN: Determine whether this compound shows IC50 lower than 0.7 nM (ties excluded): O[C@]1(c2cc3cnc(-c4ccc5nccnc5c4)nc3s2)C[C@H](C(F)(F)F)C1 [Compound C123C]
OUT: 0.0

IN: Determine whether this compound shows IC50 lower than 0.7 nM (ties excluded): CCC[C@H](O)c1cc2ccc(-c3cnc4nn(C)cc4c3)nc2s1 (single isomer, unassigned) [Compound B27S]
OUT: 0.0

IN: Determine whether this compound shows IC50 lower than 0.7 nM (ties excluded): Cn1cc2cc(-c3ccc4cc([C@]5(O)C[C@@H](C(F)(F)F)C5)sc4n3)cnc2n1 [Compound C29C]
OUT: 1.0

* * *

# test.target: 15-PGDH in A549 cells (Homo sapiens)
# Construct: endogenous in cells
# Sequence (P15428 1-266): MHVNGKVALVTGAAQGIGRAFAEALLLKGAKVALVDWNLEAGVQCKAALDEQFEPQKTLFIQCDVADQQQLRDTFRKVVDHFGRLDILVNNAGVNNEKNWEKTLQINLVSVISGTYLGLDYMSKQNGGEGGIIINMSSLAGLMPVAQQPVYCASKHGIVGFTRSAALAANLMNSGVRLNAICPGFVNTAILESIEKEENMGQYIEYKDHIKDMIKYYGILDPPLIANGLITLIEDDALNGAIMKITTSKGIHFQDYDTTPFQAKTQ
# experiment.notes: A549 cellular 15-PGDH assay (PGE2 accumulation, HTRF)
# particulars: interleukin-stimulated, inhibitor 24 hrs, PGE2 by competitive HTRF, read-out: A549 Cell Assay IC50
pIC50: −log10 of the molar value.
Classification field: enter yes (1) for pIC50 values not below 9, no (0) for values below it.

IN: Assess whether reported pIC50 for CC(C)n1ncc2cc(-c3ccc4cc([C@H](O)C5CC(F)(F)C5)sc4n3)cnc21 (single isomer, unassigned) [Compound B65R] sits at 9 or higher.
OUT: yes (1)

IN: Assess whether reported pIC50 for Cn1cc2cc(-c3ccc4cc([C@@]5(O)CCC5(C)C)sc4n3)cnc2n1 (single isomer, unassigned) [Compound C65R] sits at 9 or higher.
OUT: no (0)

IN: Assess whether reported pIC50 for Cn1cc2cc(-c3ccc4cc([C@H](O)[C@@H]5CC5(F)F)sc4n3)cnc2n1 (single isomer, unassigned) [Compound B85RS] sits at 9 or higher.
OUT: yes (1)
